Values were extracted from ChEMBL document CHEMBL3352559.

- studySystem: Sodium-dependent serotonin transporter (Homo sapiens, UniProt P31645)
- Sequence (P31645 whole entry): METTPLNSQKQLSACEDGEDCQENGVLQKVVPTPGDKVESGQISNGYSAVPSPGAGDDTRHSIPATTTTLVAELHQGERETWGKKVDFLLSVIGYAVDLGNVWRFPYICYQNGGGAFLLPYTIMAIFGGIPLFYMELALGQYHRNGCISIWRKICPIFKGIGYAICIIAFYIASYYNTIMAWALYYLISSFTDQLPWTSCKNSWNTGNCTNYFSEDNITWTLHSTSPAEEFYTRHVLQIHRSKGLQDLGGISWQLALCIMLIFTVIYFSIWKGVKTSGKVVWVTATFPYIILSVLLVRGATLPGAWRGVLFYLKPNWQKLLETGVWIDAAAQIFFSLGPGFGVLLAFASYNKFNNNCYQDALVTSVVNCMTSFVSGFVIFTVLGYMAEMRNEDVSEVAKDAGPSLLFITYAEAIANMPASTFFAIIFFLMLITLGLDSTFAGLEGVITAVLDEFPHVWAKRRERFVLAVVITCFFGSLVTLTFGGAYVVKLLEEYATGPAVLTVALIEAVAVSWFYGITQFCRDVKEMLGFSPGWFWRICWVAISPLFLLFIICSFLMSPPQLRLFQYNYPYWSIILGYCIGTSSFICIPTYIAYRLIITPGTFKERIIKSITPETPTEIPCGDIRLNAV
- testDescription: Inhibition of [3H]-serotonin uptake in human SERT expressed in HEK293 cells by scintillation counting
- Assay type: cell-based
measuredQuantity: pIC50
Answers are plain numbers, as −log10 of the molar value.

# molecule, pIC50
data = [
    ("Clc1ccc(C(CCN2CCOCC2)N2CCCC2)cc1Cl (stereo unspecified)", 6.41),
]

Provide reported pIC50 for each item, in the same order as listed.
1. CN(C)CCC(c1cc2ccccc2s1)N1CCOCC1 (stereo unspecified)
2. CN(C)CCC(c1ccc(Cl)c(Cl)c1)N1CCCCC1 (stereo unspecified)
3. CN(C)CCC(c1ccc(Cl)c(Cl)c1)N1CCNCC1 (stereo unspecified)
4. CN(C)CCC(c1csc2ccccc12)N1CCCC1 (stereo unspecified)
5. CN(C)CCC(c1ccc(Cl)c(Cl)c1)N1CCCC1 (stereo unspecified)

1. 6.35
2. 6.26
3. 6.40
4. 6.37
5. 6.30
